In what follows, each item is paired with its pIC50 for UniProtKB Q99705.
Sequence (Q99705 whole entry): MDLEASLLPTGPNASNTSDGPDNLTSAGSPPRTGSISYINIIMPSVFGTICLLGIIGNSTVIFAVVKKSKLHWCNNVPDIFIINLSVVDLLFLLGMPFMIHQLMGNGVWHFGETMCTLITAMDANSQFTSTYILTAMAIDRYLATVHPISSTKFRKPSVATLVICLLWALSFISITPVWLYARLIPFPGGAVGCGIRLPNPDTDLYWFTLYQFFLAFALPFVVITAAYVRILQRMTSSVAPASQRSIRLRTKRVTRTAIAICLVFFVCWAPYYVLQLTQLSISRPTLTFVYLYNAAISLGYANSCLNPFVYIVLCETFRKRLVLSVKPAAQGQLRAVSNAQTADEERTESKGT
Note on pIC50: it is the negative log10 of concentration, concentration in mol/L.

# example entries with known answers
O=c1cc(OCc2ccc(F)cc2)ccn1-c1ccc2nc(CN3CCC3)ccc2n1 ... 7.64
O=c1cc(OCc2ccccc2)ccn1-c1ccc2cn(CCN3CCCC3)nc2c1 ... 7.10
Cn1c(CCCN2CCCC2)nc2ccc(-n3ccc(OCc4ccc(Cl)cc4)cc3=O)cc21 ... 8.29
O=c1cc(OCc2ccc(Cl)cn2)ccn1-c1ccc2nc(OCCN3CCCC3)ccc2c1 ... 8.19
O=c1cc(OCc2ccc(F)cc2)ccn1OCc1ccc2nc(CN3CCCC3)ccc2c1 ... 7.98
CCNCc1ccc2cc(-n3ccc(OCc4ccc(F)cc4)cc3=O)ccc2n1 ... 8.21

Data request: Param readout = pIC50; param system = UniProtKB Q99705; param query = `O=c1cc(OCc2ccc(F)cc2)ccn1-c1ccc2oc(CN3CCCCCC3)cc2c1` ; response: value
Data returned: 7.72

Data request: Param readout = pIC50; param system = UniProtKB Q99705; param query = `Cn1c(CN2CCCC2)cc2ccc(-n3ccc(OCc4ccc(Cl)cn4)cc3=O)cc21` ; response: value
Data returned: 7.96

Data request: Param readout = pIC50; param system = UniProtKB Q99705; param query = `Cc1c(CCCN2CCCC2)nc2ccc(-n3ccc(OCc4ccc(Cl)cn4)cc3=O)cn12` ; response: value
Data returned: 7.66

Data request: Param readout = pIC50; param system = UniProtKB Q99705; param query = `O=c1cc(OCc2ccccc2)ccn1-c1ccc2cc(OCCN3CCCC3)ccc2c1` ; response: value
Data returned: 8.51

Data request: Param readout = pIC50; param system = UniProtKB Q99705; param query = `O=c1cc(OCc2ccc(Cl)cn2)ccn1-c1ccc2nc(OCCCN3CCCC3)ccc2c1` ; response: value
Data returned: 8.11

Values from patent US20090264426A1
